# Assayed Target: UniProtKB I3LUI7
# Sequence (I3LUI7 19-1212): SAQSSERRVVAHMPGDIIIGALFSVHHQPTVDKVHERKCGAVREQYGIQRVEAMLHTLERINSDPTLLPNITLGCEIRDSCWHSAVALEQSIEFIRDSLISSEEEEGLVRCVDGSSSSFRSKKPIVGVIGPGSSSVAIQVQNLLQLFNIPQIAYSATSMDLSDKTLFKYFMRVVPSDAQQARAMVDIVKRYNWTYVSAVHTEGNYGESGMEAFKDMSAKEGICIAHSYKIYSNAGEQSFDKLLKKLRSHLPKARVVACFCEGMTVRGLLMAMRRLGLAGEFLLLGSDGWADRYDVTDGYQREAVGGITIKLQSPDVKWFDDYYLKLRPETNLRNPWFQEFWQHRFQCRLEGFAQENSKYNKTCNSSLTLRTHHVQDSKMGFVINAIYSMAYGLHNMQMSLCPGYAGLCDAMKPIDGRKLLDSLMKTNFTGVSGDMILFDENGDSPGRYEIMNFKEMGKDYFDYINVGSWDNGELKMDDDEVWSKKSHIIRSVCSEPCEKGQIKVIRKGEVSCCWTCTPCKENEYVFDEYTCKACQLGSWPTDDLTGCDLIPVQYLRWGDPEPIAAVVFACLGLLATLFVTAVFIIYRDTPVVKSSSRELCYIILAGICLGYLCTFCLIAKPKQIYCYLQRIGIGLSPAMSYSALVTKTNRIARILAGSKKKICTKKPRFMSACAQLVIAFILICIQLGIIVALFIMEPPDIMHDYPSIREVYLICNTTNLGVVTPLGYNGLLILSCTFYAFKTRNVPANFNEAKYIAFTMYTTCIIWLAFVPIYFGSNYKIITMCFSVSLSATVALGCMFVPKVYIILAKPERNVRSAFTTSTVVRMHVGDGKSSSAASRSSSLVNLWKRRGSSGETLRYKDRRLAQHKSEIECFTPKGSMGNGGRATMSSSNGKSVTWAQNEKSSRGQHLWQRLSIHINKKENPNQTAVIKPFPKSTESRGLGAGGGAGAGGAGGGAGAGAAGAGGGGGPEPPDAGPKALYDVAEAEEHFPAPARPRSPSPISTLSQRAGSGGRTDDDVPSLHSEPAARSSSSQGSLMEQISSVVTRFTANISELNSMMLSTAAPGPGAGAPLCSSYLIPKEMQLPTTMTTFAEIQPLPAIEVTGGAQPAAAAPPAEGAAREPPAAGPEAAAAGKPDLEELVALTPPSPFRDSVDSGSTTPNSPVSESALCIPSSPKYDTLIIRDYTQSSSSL
# Assay Explanation: Affinity for the mGluR5 receptor: inhibition of 3[H]-MPEP binding in pig brain homogenate
# Measurement Conditions: 10 μM compound, 5 nM 3[H]-MPEP, read-out: mGluR5 receptor inhibition of ^3[H]-MPEP binding [10 μM] in % at a concentration of the example compounds of 10 μM
Classification field: Criterion met = inhibition at 10 µM at or over 70%; Criterion not met = inhibition at 10 µM under 70%.

Illustrative cases are given below, each with its answer.
compound=Cc1nc(C#Cc2ccccc2)ccc1-c1nc2cnccn2c1NC1CCCCC1 discrete_label="Criterion not met"
compound=Cc1cc(Br)c2nc(-c3cccc(C#Cc4ccccn4)c3)c(NC(C)(C)C)n2c1 discrete_label="Criterion met"
compound=Fc1ccc(Nc2c(-c3ccc(C#Cc4ccccn4)o3)nc3ccccn23)cc1 discrete_label="Criterion not met"

# bool: inhibition at 10 µM of Cc1cc(C)n2c(NC3CCCCC3)c(-c3cccc(C#Cc4ccccn4)c3)nc2n1 >= 70%
Criterion met

Does inhibition at 10 µM meet or surpass 70% for COc1ccc(CNc2c(-c3ccc(C#Cc4ccccc4)s3)nc3c(C)cccn23)cc1 ?
Criterion met

Is inhibition at 10 µM at least 70%? Consider C(#Cc1ccc(-c2nc3c(OCc4ccccc4)cccn3c2NCC2CCCCC2)s1)c1ccccc1
Criterion met

Is inhibition at 10 µM at least 70%? Consider Cc1ccn2c(NC(C)c3ccccc3)c(-c3ccc(C#Cc4ccccc4)s3)nc2c1 (stereo not drawn)
Criterion met

Hello, I need to know if C(#Cc1ccc(-c2nc3cnccn3c2NC2CCCC2)s1)c1ccccc1 has measured inhibition at 10 µM not below 70%. Thanks!
Criterion not met

Could you tell me if the measured inhibition at 10 µM of CCCC(C)(C)Nc1c(-c2cc(C#Cc3ccccc3)cs2)nc2cnccn12 reaches 70% or more?
Criterion met

Is reported inhibition at 10 µM greater than or equal to 70% here: CCCc1cccc2nc(-c3cc(C#Cc4ccccc4)cs3)c(NCCc3cccc(OC)c3)n12
Criterion met

Given the entry Cc1cccc(C#Cc2cccc(-c3nc4cnccn4c3Nc3ccc(F)cc3)c2)n1 , answer whether its inhibition at 10 µM meets or surpasses 70%.
Criterion met

Decide: inhibition at 10 µM of CCCC(C)(C)Nc1c(-c2cc(C#Cc3ccccc3)cs2)nc2ccccn12 >= 70%?
Criterion not met

Check the entry Cc1cc(C)n2c(NCc3ccccc3Cl)c(-c3ccc(C#Cc4ccccc4)s3)nc2c1 : does inhibition at 10 µM equal or exceed 70%?
Criterion met

Assess whether reported inhibition at 10 µM for CC(Nc1c(-c2ccc(C#Cc3ccccc3)s2)nc2c(OCc3ccccc3)cccn12)c1ccccc1 (stereo not drawn) sits at 70% or higher.
Criterion met

Evaluate COc1cccc(CNc2c(-c3ccc(C#Cc4ccccc4)s3)nc3cc(C)cc(C)n23)c1 : inhibition at 10 µM at minimum 70%?
Criterion met

Determine whether measured inhibition at 10 µM meets or exceeds 70% for CC(C)(C)CC(C)(C)Nc1c(-c2ccc(C#Cc3ccccn3)cc2)nc2c(Cl)cc(C(F)(F)F)cn12
Criterion not met

Please tell me: is the compound CC(C)(C)c1ccn2c(Nc3ccc(F)c(Cl)c3)c(-c3ccc(C#Cc4ccccc4)s3)nc2c1 at or over 70% in terms of inhibition at 10 µM?
Criterion met

Record C(#Cc1ccc(-c2nc3ncccn3c2NC2CCCC2)o1)c1ccccn1 ; criterion: inhibition at 10 µM no lower than 70%. Met?
Criterion met

Quick check, inhibition at 10 µM >= 70%? CC(Nc1c(-c2cc(C#Cc3ccccc3)cs2)nc2cnccn12)c1ccccc1 (stereo not drawn)
Criterion met

Dear colleague, could you confirm whether COc1cccc(CNc2c(-c3ccc(C#Cc4ccccc4)s3)nc3ccccn23)c1 has inhibition at 10 µM at or above 70%?
Criterion met

Is inhibition at 10 µM at least 70%? Consider COc1cccc(Nc2c(-c3ccc(C#Cc4ccccc4)s3)nc3c(OCc4ccccc4)cccn23)c1
Criterion met

Determine whether this compound has inhibition at 10 µM no lower than 70%: Cc1ccc2nc(-c3ccc(C#Cc4ccccn4)s3)c(NC(C)(C)CC(C)(C)C)n2c1
Criterion met

Does CC(C)(C)CC(C)(C)Nc1c(-c2cccc(C#Cc3ccccn3)c2)nc2c(Cl)cc(C(F)(F)F)cn12 have a reported inhibition at 10 µM of at least 70%?
Criterion not met

The reported numbers originate from patent US7420056B2.
